Cited source for all entries: patent US8894989B2

Entries and their bioavailability values follow.
Assay: Bioavailability and brain/plasma levels in rats
Conditions: rat, plasma, po, 30 mg/kg
Express the result in % but write the number alone.

Below, 3 molecules whose answers are already recorded.
O=c1[nH]nc2c3c(cccc13)N=C(CN1CCN(c3ccccc3)CC1)N2    58
O=c1[nH]nc2c3c(cccc13)N=C(CN1CCOCC1)N2 [drawing 95]    77
O=c1[nH]nc2c3c(cccc13)N=C(CN1Cc3ccccc3C1)N2 [drawing 99]    45

Reported bioavailability for "O=c1[nH]nc2c3c(cccc13)N=C(CN1CCC(c3ccccc3)CC1)N2" was 50

* * *

Assay: in vivo
Conditions: mouse, po, 30 mg/kg
Readout Label: bioavailability (%)
Give your result in % as a bare value.

Reported bioavailability ( O=c1[nH]nc2c3c(cccc13)N=C(CN1CC=C(c3ccccc3)CC1)N2 [drawing 97] ) = 61

* * *

Assay: Bioavailability and brain/plasma levels in mice
Settings: mouse, brain, 30 mg/kg
Readout Label: Kp
Give only the figure.

Below, each entry is followed by its recorded Kp result.
O=c1[nH]nc2c3c(cccc13)N=C(CN1CCN(c3ccccc3)CC1)N2    0.49
O=c1[nH]nc2c3c(cccc13)N=C(CN1CC=C(c3ccccc3)CC1)N2 [drawing 97]    0.46

Kp reported for this molecule O=c1[nH]nc2c3c(cccc13)N=C(CN1Cc3ccccc3C1)N2 [drawing 99] : 0.26

* * *

Assay: Bioavailability and brain/plasma levels in mice
Conditions: mouse, plasma, po, 30 mg/kg
Readout Label: bioavailability (%)
The reply should be a number in %, with the unit left off.

Consider the following illustrative entries.
O=c1[nH]nc2c3c(cccc13)N=C(CN1CCN(c3ccccc3)CC1)N2    49
O=c1[nH]nc2c3c(cccc13)N=C(CN1CCC(c3ccccc3)CC1)N2    75
O=c1[nH]nc2c3c(cccc13)N=C(CN1CCOCC1)N2 [drawing 95]    77

Now for another entry.
The measured bioavailability associated with O=c1[nH]nc2c3c(cccc13)N=C(CN1Cc3ccccc3C1)N2 [drawing 99] reads 81

* * *

Overview of reported Kp across a group of molecules:
Test: Bioavailability and brain/plasma levels in rats
Details: rat, brain, 30 mg/kg

O=c1[nH]nc2c3c(cccc13)N=C(CN1CCN(c3ccccc3)CC1)N2    0.4

Reported Kp for O=c1[nH]nc2c3c(cccc13)N=C(CN1CCOCC1)N2 [drawing 95] was < 0.05

For this molecule ( O=c1[nH]nc2c3c(cccc13)N=C(CN1CC=C(c3ccccc3)CC1)N2 [drawing 97] ), measured Kp is 0.42

For record O=c1[nH]nc2c3c(cccc13)N=C(CN1Cc3ccccc3C1)N2 [drawing 99] the listed Kp is 0.36
